- testMethodNotes: In vivo pharmacokinetics, single oral dose
- Design: species or system mouse
- studyConditions: male, C57BL/6 N, mouse, plasma; mice, single oral gavage 10 mg/kg
endpointName: Cmax (ng/mL)
State the answer as a number, implicitly in ng/mL.

{"chemicalString": "COc1ccc2cc3[n+](cc2c1O)CCc1cc2c(cc1-3)OCO2", "Cmax [ng/mL]": 101}

Data request, read-out Cmax, for COc1ccc2cc3n(cc-2c1=O)CCc1cc2c(cc1-3)OCO2 126

====

- testMethodNotes: In vivo pharmacokinetics, single oral dose
- Design: species or system mouse
- studyConditions: male, C57BL/6 N, mouse, plasma; mice, single oral gavage 100 mg/kg
A collection of compounds and their measured Tmax
State the answer as a number, implicitly in min.

{"compound": "COc1ccc2cc3n(cc-2c1=O)CCc1cc2c(cc1-3)OCO2 [Q-BRB, quinoid-type berberrubine]", "endpointName": "Tmax", "obsValue": 15}

Lab note: next compound to report on.
Data request, read-out Tmax, for COc1ccc2cc3[n+](cc2c1O)CCc1cc2c(cc1-3)OCO2 [AcA-BRB, berberrubine acetic acid adduct] 15

====

- testMethodNotes: Unbound fraction in mouse plasma (equilibrium dialysis)
- Format: in vitro ADME
- studyConditions: pH 7.4, equilibrium dialysis 6 h, 37 °C, read-out: Plasma protein binding (fraction unbound) mouse (pH7.4)
A collection of compounds and their measured fraction unbound at 6 h, 1 μM
Would you mind answering with just the numeric figure?

Data request, read-out fraction unbound at 6 h, 1 μM, for COc1ccc2cc3n(cc-2c1=O)CCc1cc2c(cc1-3)OCO2 0.162

Same read-out for COc1ccc2cc3[n+](cc2c1O)CCc1cc2c(cc1-3)OCO2 ? 0.203

====

A collection of compounds and their measured Papp at 4 h, 30 μM
- testMethodNotes: PAMPA assay
- Format: in vitro ADME
- studyConditions: donor/acceptor pH 6.4/7.4, 30 μM, 37 °C, 4 h, read-out: Membrane permeability pH6.4/7.4
State the answer as a number, implicitly in ×10⁻⁶ cm/s.

{"chemicalString": "COc1ccc2cc3n(cc-2c1=O)CCc1cc2c(cc1-3)OCO2", "endpointName": "Papp at 4 h, 30 μM", "unit": "×10⁻⁶ cm/s", "obsValue": 1.63}

Lab note: next compound to report on.
Data request, read-out Papp at 4 h, 30 μM, for COc1ccc2cc3[n+](cc2c1O)CCc1cc2c(cc1-3)OCO2 1.87

====

A collection of molecules and their measured Papp at 4 h
- testMethodNotes: PAMPA assay
- Format: in vitro ADME
- studyConditions: read-out: permeability of reference compounds
State the answer as a number, implicitly in ×10⁻⁶ cm/s.

// known answers, use as guide
{"molecule": "COCCc1ccc(OCC(O)CNC(C)C)cc1 (stereo not drawn) [metoprolol, reference compound]", "Papp at 4 h [×10⁻⁶ cm/s]": 3}
{"molecule": "Cc1cc(=O)n(-c2ccccc2)n1C [antipyrine, reference compound]", "Papp at 4 h [×10⁻⁶ cm/s]": 24}

Lab note: next molecule to report on.
Data request, read-out Papp at 4 h, for O=C(O)c1cc(/N=N/c2ccc(S(=O)(=O)Nc3ccccn3)cc2)ccc1O [sulfasalazine, reference compound] 0.084

====

A collection of compounds and their measured CL/F
- testMethodNotes: In vivo pharmacokinetics, single oral dose
- Parameters: species or system mouse
- studyConditions: male, C57BL/6 N, mouse, plasma; mice, single oral gavage 100 mg/kg; read-out: CLtot/F
State the answer as a number, implicitly in mL/min/kg.

{"compound": "COc1ccc2cc3[n+](cc2c1O)CCc1cc2c(cc1-3)OCO2 [AcA-BRB, berberrubine acetic acid adduct]", "unit": "mL/min/kg", "obsValue": 783}

Lab note: next compound to report on.
Data request, read-out CL/F, for COc1ccc2cc3n(cc-2c1=O)CCc1cc2c(cc1-3)OCO2 [Q-BRB, quinoid-type berberrubine] 326
